assay: Cytotoxicity to BALB/c mouse total splenocytes (MTT); assay type: cell-based; conditions: male, total splenocytes (primary), Table S2 dose-dependent, 1.0 µM
observation-type: viability at 48 h, 1 µM (%)
Write the number in % without appending the unit.

>>> print(df.to_string())
                                test_smiles  endpoint_unit  numeric_result
0  COc1cc(/C=C/c2nc(-c3cc(OC)c(OC)c(OC)c3)no2)cc(OC)c1OC              %            94.9

Below: the item to evaluate.
Prompt line: GET /values?readout=viability at 48 h, 1 µM&item= C(=C\c1nc(-c2ccccc2)no1)/c1cccnc1
Response line: 92.7
